system: UACC-257 melanoma; assay: NCI tumour cell line growth inhibition, 48 h
Reported Metric: TGI (µM)
Please state the figure in µM; there is no need to write the unit.

Use these answered entries as a reference point.
>>> recorded_value("O=C(N/N=C/c1c[nH]c2ccccc12)Nc1ccc(F)c(Cl)c1")
26.4
>>> recorded_value("FC(F)(F)c1cc2c(Cl)ncnc2n1CCN1CCOCC1")
30.2

Assign TGI to the following record: `CCC[Se]C(=O)c1ccc(C(=O)[Se]CCC)s1`
1.16

* * *

tested on: UACC-62 melanoma; assay: NCI tumour cell line growth inhibition, 48 h; in the data active = GI50 below about 0.43 µM; inactive = the rest
Thanks in advance; please answer with one of these: 1 (yes) (active), 0 (no) (inactive)

// below: answered molecules
>>> category_label("CCC[Se]C(=O)c1ccc(C(=O)[Se]CCC)s1")
"1 (yes)"
>>> category_label("COc1ccc2cc([C@H](C)C(=O)[Se]CCC#N)ccc2c1")
"0 (no)"
>>> category_label("FC(F)(F)c1cc2c(Cl)ncnc2n1CCN1CCOCC1")
"0 (no)"

Now consider the entry below.
Which outcome was assigned to `O=C(N/N=C/c1c[nH]c2ccccc12)Nc1ccc(F)c(Cl)c1` in this test?
0 (no)
